Assay: gradient 5% acetonitrile 3 min, to 50% in 2 min, to 85% in 15 min, held 3 min, 100 µL/min
Conditions: column: Zorbax Extend-C18 2.1 x 50 mm; eluents: water / acetonitrile, 0.1% formic acid

Molecule	RP-LC retention time, s
Cc1cc(Br)ccc1NC(=O)C1CCN(c2cc(=O)n(C)c(=O)n2C)CC1	745
CCc1ccccc1S(=O)(=O)NCc1cccnc1-c1ccc(OC)cc1	718
CNC(=O)c1ccsc1NC(=O)c1cn(C)nc1OC	616
CN1C(=O)c2cc(C(=O)Nc3cccc(Cl)c3)nn2CC1(C)C(=O)NC1CCCCC1 (stereo not given)	860
CCCCNC(=O)C1CC(=O)N(CCc2c[nH]c3ccc(C)cc23)C1 (stereo not given)	762
O=c1c2sccc2n(Cc2nc(-c3ccc(F)cc3)no2)c(=O)n1CCc1ccccc1	1140
CC(C)c1nc(NCc2ccc3c(c2)OCO3)ncc1C(=O)O	844
O=C1NC(C(=O)NC2CC2)Cn2cccc21 (stereo not given)	569
Cc1cccc(NC(=O)Nc2ccc3nncn3c2)c1	690
COc1ccc(C(=O)N2CCC(c3cc(N)on3)CC2)c(OC)c1	658
Cc1cc(=O)n(CC(=O)Nc2ccc(F)cc2C)c(N)n1	586
Cc1cc2nn(CC(=O)Nc3ccccc3F)c(=O)n2c(Nc2ccccc2)n1	985
Cc1[nH]c(C(=O)Nc2cccc(Br)c2)c(C)c1S(=O)(=O)N1CCCC1	971
CCOC(=O)C1CCN(C(=O)C2CCCN(c3ncnc4c3nc3n4CCCCC3)C2)CC1 (stereo not given)	726
Cc1c(CC(=O)N2CCC(C(N)=O)CC2)c(=O)oc2cc3occ(-c4ccc(F)cc4)c3cc12	768
Cc1cc(SCC(=O)N2CCCc3ccccc32)ncn1	771
CCn1cc2c3c(cccc31)CN(C(=O)Nc1cc(OC)c(OC)c(OC)c1)CC2	742
CCOC(=O)Cc1csc(NC(=O)c2csc(Nc3cccc(Cl)c3)n2)n1	952
CC(C)n1cc(S(=O)(=O)NCc2ccccc2C(F)(F)F)c2cccnc21	977
COc1cccc(CNC(=O)C2(C)CCN(C(=O)Nc3ccccc3C(F)(F)F)CC2)c1	806

----------
Experiment: gradient 5% acetonitrile 3 min, to 50% in 2 min, to 85% in 15 min, held 3 min, 100 µL/min
Conditions: column: Zorbax Extend-C18 2.1 x 50 mm; eluents: water / acetonitrile, 0.1% formic acid

Compound	RP-LC retention time (s)
O=C(c1cn2c(n1)COCC2)N(Cc1ccccc1)Cc1ccco1	716
CN(CCc1noc(C2CN(Cc3cccc(C(F)(F)F)c3)C2)n1)S(C)(=O)=O	643
Fc1ccc(-c2cc(CN3CCCC3)[nH]n2)cc1	594
Cc1nn(C(C)C(=O)NCCCN(C)c2ccccc2)c(=O)c2c(C)n(-c3ccccc3)nc12 (centres undefined)	655
O=C(NCc1ccc(Br)cc1)c1sc2ncccc2c1-n1cccc1	1090
CCOc1ccccc1CNC(=O)C1CCCN(c2ccc(=O)n(-c3ccc(CC)cc3)n2)C1 (centres undefined)	978
COc1cccc2[nH]c(C(=O)NCCC(=O)NCCc3c[nH]c4ccccc34)cc12	662
COc1ccc(-c2noc(C3CCCN3C(=O)Nc3cccc(Br)c3)n2)cc1 (centres undefined)	972
COCCNC(=O)C1c2ccccc2C(=O)N(C)C1c1cccs1 (centres undefined)	679
N#Cc1ccc(-c2csc(NC(=O)c3ccc(Cl)cc3)n2)cc1	1140
O=C(C1CCOCC1)N1CCC(Oc2nccnc2N2CCOCC2)C1 (centres undefined)	598
COc1ccc(C(F)(F)F)cc1NC(=O)C1CCCN(c2ccc(-n3ccnc3)nn2)C1 (centres undefined)	609
Cc1nccn1CC(=O)N1CCCC(OCc2nc(C(C)C)no2)C1 (centres undefined)	596
CCOC(=O)c1cc(C2CC2)nc2c1c(=O)n(Cc1cccc(Cl)c1)c(=O)n2C	1200
COc1ccc(-n2c(=O)n(C)c(=O)c3cc(C(=O)Nc4cc(F)ccc4C)cnc32)cc1	893
O=C(c1ccc2c(=O)n3c(nc2c1)CCCC3)N1CCN(c2ccccn2)CC1	564
Cc1cccc(NC(=O)N2CCN(c3nc4ccccc4nc3C(F)(F)F)CC2)c1C	1100
COCCC1CCN(C(=O)COc2ccccc2)CC1	800
CCc1ccccc1NC(=O)C1CCN(S(C)(=O)=O)c2ccccc2O1 (centres undefined)	912
CCCNC(=O)N1CCN(Cc2nc3cccnc3n2-c2ccc(CC)cc2)CC1	641
CCc1nc2cc(-c3noc(-c4sc(C)nc4C)n3)ccc2o1	1060
CNC(=O)NC1CCN(C(=O)c2ccc(F)cc2)C1 (centres undefined)	600
CSc1ncccc1-c1nc(-c2ccc3c(c2)ncn3CCN2CCCCC2)no1	649
O=c1n(Cc2ccccc2)nc2n1CCN(S(=O)(=O)c1ccc3c(c1)CCC3)CC2	931
COc1ccc(S(=O)(=O)Cc2nc(-c3cccc(C(F)(F)F)c3)no2)cc1	1060
CN[C@@H](C)C(=O)N[C@H]1CN(C(=O)CC(C)C)CC[C@H]2CC[C@@H](C(=O)NC(c3ccccc3)c3ccccc3)N2C1=O	757
O=C(Cn1nc2c3cc(-c4ccc(Cl)cc4)nn3ccn2c1=O)NC1CCCC1	1110
CC1(C)COc2ccc(NC(=O)c3ccc(Br)o3)cc2NC1=O	824
O=S(=O)(c1ccc2nc(N3CCN(C4CCCCC4)CC3)cnc2c1)N1CCCCC1	705
Cc1cc(Cl)ccc1OCC(=O)N1CCn2c(nnc2C(C)C)C1	665
CCCS(=O)(=O)NCc1ccc2c(c1)CCN2C(=O)CC	686
CC(C)NC(=O)N1CCCC1c1nc(-c2cccc(Cl)c2)no1 (centres undefined)	906
COc1cc2c(cc1OC)CN(C(=O)c1cc(-c3cccs3)[nH]n1)CC2	703
O=C(Cn1nc2n(c1=O)CCCCC2)Nc1ccc(F)cc1	666
CCc1cc(=O)n(CC(=O)Nc2ccc(C)cc2)c(N)n1	617
COc1cccc(NC(=O)N2CCc3nc[nH]c3C2)c1	554
O=C(C1CCN(c2cncnc2N2CCOCC2)CC1)N1CCC(Cc2ccccc2)CC1	700
CSc1ccc(CNC(=O)CCc2c(-c3ccc(F)cc3)nc3ccccn23)cc1	692
O=S(=O)(c1cccc(Cl)c1)N1CCC2(CCN(c3cccnc3)C2)C1 (centres undefined)	680

----------
Experiment: gradient 5% acetonitrile 3 min, to 50% in 2 min, to 85% in 15 min, held 3 min, 100 µL/min
Details: column: Zorbax Extend-C18 2.1 x 50 mm; eluents: water / acetonitrile, 0.1% formic acid
// reported RP-LC retention time per item
Reported Endpoint: RP-LC retention time

Molecule	Result
COCCCn1c(=O)c2ccccc2n(Cc2nc(-c3cccc(OC)c3)no2)c1=O	1040 s
Cc1ccc(S(=O)(=O)CC(=O)Nc2nc(-c3ccc(F)cc3)cs2)cc1	988 s
O=c1c2cnn(-c3ccc(Br)cc3)c2ncn1Cc1nc(-c2ccccc2)no1	1150 s
COc1ccc(Nc2c(-c3ccc(N(C)C)cc3)nc3ncccn23)cc1	684 s
CCOc1ccc(-c2nnc(SCC(=O)N3c4ccccc4CC3C)o2)cc1 (centres undefined)	1110 s
Cc1ccc(NC(=O)CSc2ccc(N3CCCC(C(=O)NC4CC4)C3)nn2)cc1Cl (centres undefined)	698 s
CCCN1CCN(CCCNC(=O)C2CCN(Cc3cn(C)c4ccc(OC)cc34)CC2)CC1	533 s
O=C(Nc1ccccc1C(F)(F)F)N1CCN(c2ccc(=O)n(-c3ccc(F)cc3)n2)CC1	794 s
CCc1nc(-c2csc(S(=O)(=O)N3CCC(C(=O)Nc4cccc(C#N)c4)CC3)c2)no1	966 s
CSc1cccc(NC(=O)N2CCC(c3nc(C(=O)N(C)C)c(C)o3)CC2)c1	732 s
CCCc1ccc(S(=O)(=O)N2CCc3c(c(-c4nnc(-c5ccccc5F)o4)nn3C)C2)cc1	1070 s
CCOC(=O)c1sc(NC(=O)C(CC)Sc2nc(C)cc(C)n2)nc1C (centres undefined)	1080 s
COc1ccc(C2(CNC(=O)Cc3cccs3)CCOCC2)cc1	734 s
CN1C(=O)C2(CCN(C(=O)c3ccnn3C)CC2)c2ccccc21	699 s
CCC(=O)N(C1CCOCC1)C1CCN(S(=O)(=O)c2ccc(Cl)cc2C)CC1	911 s
COc1ccc(-c2c(C)noc2NC(C)=O)cc1S(=O)(=O)N1CCN(C(=O)c2ccco2)CC1	670 s
Cn1c(=O)c2ccn(CC(=O)N3CCN(c4ncccn4)CC3)c2n(C)c1=O	595 s
CC(C)n1c(N2CCCN(C(=O)c3cccnc3)CC2)cc(=O)n(C(C)C)c1=O	668 s
O=C(c1cccc(F)c1)N1CCN(C(=O)c2nsc3ccccc23)CC1	760 s

----------
// reported RP-LC retention time per item
Assay: gradient 5% acetonitrile 3 min, to 50% in 2 min, to 85% in 15 min, held 3 min, 100 µL/min
Settings: column: Zorbax Extend-C18 2.1 x 50 mm; eluents: water / acetonitrile, 0.1% formic acid

Compound	RP-LC retention time (s)
CS(=O)(=O)N1C[C@H]2CCN(Cc3c(F)cccc3Cl)C[C@H]21	571
CN(Cc1ccccc1)C(=O)CSc1nnc(-c2ccc(Cl)cc2)o1	1030
Cc1occc1-c1nnc(SC(C)C(=O)N2CCCc3ccccc32)o1 (stereo not given)	981
CCNC(=O)C1CCN(S(=O)(=O)c2cc(-c3noc(CC)n3)cs2)CC1	767
O=C(c1cn(-c2cc(N3CCOCC3)ncn2)cn1)N1CCSCC1	685
COc1ccccc1NC(=O)Cn1c(=O)cc(-c2nc(C3CC3)no2)c2ccccc21	1280
COCC(=O)Nc1cnc(-c2cccnc2)nc1	554
CC(C)n1cnc2cc(CNC(=O)C3(c4ccccc4)CC3)ccc21	648
Cc1ccc2[nH]cc(CCN3CC(C(=O)NCc4ccc5c(c4)OCO5)CC3=O)c2c1 (stereo not given)	770
COC(=O)c1nnn(-c2cc(Cl)ccc2OC)c1C(=O)OC	898
CCCn1ccc2sc(C)c(C(=O)N(CC)Cc3ccccc3)c2c1=O	884
COc1ccc(NS(=O)(=O)c2cc3n(c2)CCN(CC(C)C)C3=O)cc1	745
Cc1ccc(S(=O)(=O)Nc2ccc(-c3cn4cccc(C)c4n3)cc2)c(C)c1	688
Cn1cnc(S(=O)(=O)N2CC(n3cc(C(=O)N4CCOCC4)nn3)C2)c1	575
Cn1cccc1C(CNC(=O)Nc1ccc(Cl)c(Cl)c1)N1CCOCC1 (stereo not given)	601
O=C(Cc1cccc(C(F)(F)F)c1)N1CCN(c2nnc3ccccn23)CC1	702
O=c1ccc(-c2ccc(Cl)cc2)nn1CCc1nc(-c2ccc3c(c2)OCO3)no1	1040
CC1CCN(C(=O)CS(=O)Cc2cnn(-c3ccccc3)c2-n2cccc2)CC1 (stereo not given)	828
Cc1ccc(-n2c(N3CCC(C(=O)NCCC(C)C)CC3)nc3ccsc3c2=O)cc1	890
Cc1ccc(CNC(=O)Nc2cnc3c(c2)CCC3)cc1	534
